# Target entity: EPHA2 (human)
# Test method notes: radiometric filter-binding kinase assay
# Condition label: compound 10.0 µM
Field: class. Source value: residual activity. Ranges: A = under 80%, B = from 80% up to 90%, C = 90% and over

| Molecule | Assigned label |
| --- | --- |
| NC(=O)c1c(NC(=O)C2CC2)sc2c1CCCC2 | A |
| FC(F)(F)c1ccc(-c2ccc(Oc3cncc4sc(-c5nn[nH]n5)cc34)cc2)cc1 | C |
| CCn1c(-c2nonc2N)nc2cncc(CNC3CCNCC3)c21 | C |
| CN1C(=O)[C@@H](Cc2c[nH]c3ccccc23)NC1=S | C |
| Nc1cccc2c1CN(C1CCC(=O)NC1=O)C2=O (configuration not stated) | C |
| CNc1nc(-c2ccc3c(N)n[nH]c3c2)cc(N2C[C@@H](C(=O)NC3CCCCC3)CC[C@H]2C)n1 | B |
| NS(=O)(=O)OC[C@@H]1C[C@@H](n2ccc3c(N[C@H]4CCc5ccccc54)ncnc32)C[C@@H]1O | C |
| O=C(N[C@@H](COc1ccc2[nH]c(=O)[nH]c2c1)c1ccccc1)c1cccn(Cc2ccc(F)c(F)c2)c1=O | B |
| Cc1ccc(Sc2cnc(Nc3cccc(Br)n3)s2)cc1C(=O)N1CCN(C(=O)CN)CC1 | A |
| CCCC(CCC)C(=O)O | C |
| Cc1cc(SCc2sc(-c3ccc(C(F)(F)F)cc3)nc2C)ccc1OCC(=O)O | C |
| Cc1ccc(-c2ccc3c(ccc4sc5c(c43)NC[C@@H](C)NC5=O)n2)cn1 | A |
| C[C@H]1CCCC(=O)CCC/C=C/c2cc(O)cc(O)c2C(=O)O1 | A |
| CCNc1nc(Nc2cc(F)c(C(=O)N3CCOCC3)cc2OC)ncc1C(F)(F)F | B |
| NC(=O)c1cc2c(-c3cccc(-c4ccccc4)c3)cnc(N)c2s1 | B |
| COc1cc(C(=O)N2CCOCC2)c(F)cc1Nc1ncc(C(F)(F)F)c(NC2CC2)n1 | C |
| O=c1c(O)c(-c2ccc(O)c(O)c2)oc2cc(O)c(O)c(O)c12 | A |
| Cc1ccc(=O)n(-c2ccccc2)c1 | C |
| NC(=O)Nc1ccc2c(c1)/C(=C/c1cc(-c3cccnc3)c[nH]1)C(=O)N2 | A |
| c1ccc2c(-c3cnn4cc(-c5ccc(N6CCNCC6)cc5)cnc34)ccnc2c1 | A |
| COC(=O)/C=C/C(=O)OC | C |
| COc1cc2ncn(-c3cc(OCc4ccccc4S(C)(=O)=O)c(C#N)s3)c2cc1OC | A |
| O=C(NOC[C@H](O)CO)c1ccc(F)c(F)c1Nc1ccc(I)cc1Cl | C |
| NC1(c2ccc(-c3nc4ccn5c(=O)[nH]nc5c4cc3-c3ccccc3)cc2)CCC1 | B |
| CC(C)C[C@H](NC(=O)CNC(=O)c1cc(Cl)ccc1Cl)B1OC(=O)CC(CC(=O)O)(C(=O)O)O1 (some centres not stated) | C |
| NCC(=O)Nc1ccc(-n2nc(C(F)(F)F)cc2-c2ccc3c(ccc4ccccc43)c2)cc1 | C |
| C=CC(=O)N1CCC[C@@H](n2nc(-c3ccc(Oc4ccccc4)cc3)c3c(N)ncnc32)C1 | A |
| O=C(NOCC(O)CO)c1ccc(F)c(F)c1Nc1ccc(I)cc1Cl (configuration not stated) | C |
| O=C(Nc1ccccc1-c1cn2c(CN3CCNCC3)csc2n1)c1cnc2ccccc2n1 | B |
| Oc1ccc2ccccc2c1SSc1c(O)ccc2ccccc12 | C |
| O=C(O)c1ccc(-c2c[nH]c3ncc(-c4ccccc4)cc23)cc1C1CCCC1 | B |
| O=C1NC(=S)N[C@@H]1Cc1c[nH]c2ccccc12 | B |

###

# Target entity: BRSK1 (human) (UniProt Q8TDC3)
# Sequence (Q8TDC3 whole entry, looked up): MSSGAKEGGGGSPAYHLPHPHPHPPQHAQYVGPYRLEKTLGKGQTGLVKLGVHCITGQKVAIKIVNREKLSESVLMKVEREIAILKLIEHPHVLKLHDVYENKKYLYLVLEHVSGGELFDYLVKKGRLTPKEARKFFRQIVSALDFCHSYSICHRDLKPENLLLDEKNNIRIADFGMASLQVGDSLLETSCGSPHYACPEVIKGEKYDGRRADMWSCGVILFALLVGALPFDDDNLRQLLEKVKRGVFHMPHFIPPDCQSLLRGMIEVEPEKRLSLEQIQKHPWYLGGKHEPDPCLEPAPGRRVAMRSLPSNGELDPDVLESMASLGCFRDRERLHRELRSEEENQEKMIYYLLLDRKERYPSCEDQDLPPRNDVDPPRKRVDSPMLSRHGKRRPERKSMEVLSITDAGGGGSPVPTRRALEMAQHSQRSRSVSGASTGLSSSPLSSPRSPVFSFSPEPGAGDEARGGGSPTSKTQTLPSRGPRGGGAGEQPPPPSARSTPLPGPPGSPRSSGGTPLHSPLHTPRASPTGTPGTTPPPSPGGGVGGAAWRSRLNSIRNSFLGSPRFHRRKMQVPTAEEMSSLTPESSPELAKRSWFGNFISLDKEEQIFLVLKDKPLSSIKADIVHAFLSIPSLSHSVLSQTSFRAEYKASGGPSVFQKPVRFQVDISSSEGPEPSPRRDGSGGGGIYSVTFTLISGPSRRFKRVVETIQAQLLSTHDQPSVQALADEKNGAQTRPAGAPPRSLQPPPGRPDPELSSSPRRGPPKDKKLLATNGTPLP
# Test method notes: radiometric filter-binding kinase assay
# Condition label: compound 0.01 µM
Let's look at some molecules and their measured residual activity.

| Molecule | residual activity (%) |
| --- | --- |
| CNC(=O)C1[C@H]2O[C@@](C)([C@@H]1N)n1c3ccccc3c3c4c(c5c6ccccc6n2c5c31)C(=O)NC4 (stereo not given in full) | 61 |
| O=C(Nc1nc2cc(C(F)(F)F)cc(NC3CC3)n2n1)c1cccnc1 | 102 |
| COc1cc(O)c2c(c1)[C@H]1OC1C[C@H](O)[C@H](O)C(=O)/C=C\C[C@H](C)OC2=O (stereo not given in full) | 90 |
| COc1ccc(N(C(=O)Nc2c(C)cccc2C)c2cc(Nc3ccc(N4CCN(C)CC4)cc3)ncn2)c(OC)c1 | 103 |
| CNc1nc(-c2ccc3c(N)n[nH]c3c2)cc(N2C[C@@H](C(=O)NC3CCCCC3)CC[C@H]2C)n1 | 110 |

###

Let's look at some compounds and their measured residual activity.
# Target entity: UniProtKB Q7KZI7
# Sequence (Q7KZI7 whole entry, looked up): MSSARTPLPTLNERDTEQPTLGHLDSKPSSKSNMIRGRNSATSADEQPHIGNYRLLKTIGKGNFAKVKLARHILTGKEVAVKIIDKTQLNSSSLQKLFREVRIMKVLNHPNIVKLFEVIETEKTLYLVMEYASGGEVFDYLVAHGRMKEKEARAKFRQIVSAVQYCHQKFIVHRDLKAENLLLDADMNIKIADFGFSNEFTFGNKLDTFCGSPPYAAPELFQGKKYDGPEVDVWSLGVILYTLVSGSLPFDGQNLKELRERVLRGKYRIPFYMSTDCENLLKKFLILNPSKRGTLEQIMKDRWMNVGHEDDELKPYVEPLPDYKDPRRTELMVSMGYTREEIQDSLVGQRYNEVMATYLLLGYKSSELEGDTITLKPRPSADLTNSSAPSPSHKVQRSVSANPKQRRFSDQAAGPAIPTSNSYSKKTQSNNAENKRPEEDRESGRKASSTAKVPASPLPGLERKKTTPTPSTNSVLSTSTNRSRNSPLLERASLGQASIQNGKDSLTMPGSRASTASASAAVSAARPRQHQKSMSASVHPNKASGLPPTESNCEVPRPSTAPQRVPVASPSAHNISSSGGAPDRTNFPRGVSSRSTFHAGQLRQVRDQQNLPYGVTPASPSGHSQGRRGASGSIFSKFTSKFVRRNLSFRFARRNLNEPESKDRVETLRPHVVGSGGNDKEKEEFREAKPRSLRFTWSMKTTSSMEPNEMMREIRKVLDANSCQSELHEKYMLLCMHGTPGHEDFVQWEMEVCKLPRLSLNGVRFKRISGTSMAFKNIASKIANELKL
# Test method notes: radiometric filter-binding kinase assay
# Condition label: compound 1.0 µM

| Compound | residual activity, % |
| --- | --- |
| COc1cc(O)c2c(c1)/C=C/C[C@H](O)[C@H](O)C(=O)/C=C\C[C@H](C)OC2=O | 114 |
| O=C(O)c1cc(N=Nc2ccc(S(=O)(=O)Nc3ccccn3)cc2)ccc1O | 108 |
| CC(C)(C#N)c1ccc(N2C(=O)OCc3cnc4ccc(-c5cnc6ccccc6c5)cc4c32)cc1 | 101 |
| CC1=C(CO)C(=O)O[C@@H]([C@@H](C)[C@H]2CC[C@H]3[C@@H]4C[C@H]5O[C@]56[C@@H](O)C=CC(=O)[C@]6(C)C4CC[C@]23C)C1 (some centres undefined) | 111 |
| NC(=O)c1ccc(-c2ccc(Oc3cncc4sc(-c5nn[nH]n5)cc34)cc2)cc1 | 80 |
| COc1cc(O)c2c(c1)[C@H]1OC1C[C@H](O)[C@H](O)C(=O)/C=C\C[C@H](C)OC2=O (some centres undefined) | 100 |
| O=c1c(O)c(-c2ccc(O)c(O)c2)oc2cc(O)c(O)c(O)c12 | 86 |
| COc1cc2ncn(-c3cc(OCc4ccccc4S(C)(=O)=O)c(C#N)s3)c2cc1OC | 39 |
| NC(=O)c1cc2c(-c3cccc(-c4ccccc4)c3)cnc(N)c2s1 | 65 |
| O=C(N[C@@H](COc1ccc2[nH]c(=O)[nH]c2c1)c1ccccc1)c1cccn(Cc2ccc(F)c(F)c2)c1=O | 102 |
| Cc1ccc(=O)n(-c2ccccc2)c1 | 104 |
| COc1ccc(N(C(=O)Nc2c(C)cccc2C)c2cc(Nc3ccc(N4CCN(C)CC4)cc3)ncn2)c(OC)c1 | 63 |
| CN(C)C/C=C/C(=O)Nc1cccc(C(=O)Nc2ccc(Nc3nccc(-c4cccnc4)n3)cc2)c1 | 85 |
| Cc1cc(NC(=O)c2cccc(NC(=O)/C=C/CN(C)C)c2)ccc1Nc1nccc(-c2cccnc2)n1 | 85 |
| NS(=O)(=O)OC[C@@H]1C[C@@H](n2ccc3c(N[C@H]4CCc5ccccc54)ncnc32)C[C@@H]1O | 90 |
| C=C1C(=O)OC2C1CC/C(C)=C/CCC1(C)OC21 (centres undefined) | 112 |
| COc1cc(C(=O)N2CCOCC2)c(F)cc1Nc1ncc(C(F)(F)F)c(NC2CC2)n1 | 100 |
| Oc1ccc2ccccc2c1SSc1c(O)ccc2ccccc12 | 85 |
| NCC(=O)Nc1ccc(-n2nc(C(F)(F)F)cc2-c2ccc3c(ccc4ccccc43)c2)cc1 | 94 |

###

# Target entity: UniProt P29323
# Sequence (P29323 whole entry, looked up): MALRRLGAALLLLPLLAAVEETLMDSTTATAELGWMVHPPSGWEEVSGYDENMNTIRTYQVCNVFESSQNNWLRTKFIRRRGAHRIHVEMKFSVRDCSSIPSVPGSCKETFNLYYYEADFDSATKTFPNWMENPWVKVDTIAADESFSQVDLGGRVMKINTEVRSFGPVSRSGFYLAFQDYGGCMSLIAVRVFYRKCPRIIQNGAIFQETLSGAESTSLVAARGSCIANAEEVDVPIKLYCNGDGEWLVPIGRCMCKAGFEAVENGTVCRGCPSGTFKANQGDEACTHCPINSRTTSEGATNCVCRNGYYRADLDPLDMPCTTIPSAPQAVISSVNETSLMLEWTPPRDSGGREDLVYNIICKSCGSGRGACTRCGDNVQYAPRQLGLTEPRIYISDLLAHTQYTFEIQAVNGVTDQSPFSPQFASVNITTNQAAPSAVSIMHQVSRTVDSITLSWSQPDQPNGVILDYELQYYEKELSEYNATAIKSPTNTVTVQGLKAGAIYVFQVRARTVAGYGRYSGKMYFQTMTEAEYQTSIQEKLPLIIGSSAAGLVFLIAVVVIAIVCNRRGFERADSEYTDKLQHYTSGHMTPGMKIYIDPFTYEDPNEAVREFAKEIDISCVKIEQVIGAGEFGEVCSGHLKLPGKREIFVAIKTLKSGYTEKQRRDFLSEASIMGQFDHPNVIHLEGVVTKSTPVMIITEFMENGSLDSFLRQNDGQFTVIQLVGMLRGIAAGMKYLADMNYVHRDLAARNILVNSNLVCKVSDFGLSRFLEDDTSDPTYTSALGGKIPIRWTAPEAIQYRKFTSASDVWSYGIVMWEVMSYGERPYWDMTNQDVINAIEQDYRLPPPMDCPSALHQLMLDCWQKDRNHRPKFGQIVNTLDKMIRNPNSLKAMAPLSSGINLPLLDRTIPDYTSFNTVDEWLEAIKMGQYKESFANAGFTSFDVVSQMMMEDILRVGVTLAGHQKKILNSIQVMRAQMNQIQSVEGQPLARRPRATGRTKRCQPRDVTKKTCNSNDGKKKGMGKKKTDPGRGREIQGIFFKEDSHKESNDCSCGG
# Test method notes: radiometric filter-binding kinase assay
# Condition label: compound 1.0 µM

| Compound | Units of measure | residual activity |
| --- | --- | --- |
| Oc1ccc2ccccc2c1SSc1c(O)ccc2ccccc12 | % | 137 |
| CCCCCc1ccc(/C=C/[C@H](O)[C@@H](CO)NC)cc1 | % | 105 |
| COc1cc(O)c2c(c1)[C@H]1OC1C[C@H](O)[C@H](O)C(=O)/C=C\C[C@H](C)OC2=O (stereo not given in full) | % | 115 |
| CC1=C(CO)C(=O)O[C@@H]([C@@H](C)[C@H]2CC[C@H]3[C@@H]4C[C@H]5O[C@]56[C@@H](O)C=CC(=O)[C@]6(C)C4CC[C@]23C)C1 (stereo not given in full) | % | 102 |
| Cc1cc(NC(=O)c2cccc(NC(=O)/C=C/CN(C)C)c2)ccc1Nc1nccc(-c2cccnc2)n1 | % | 97 |
| NC(=O)c1ccc(-c2ccc(Oc3cncc4sc(-c5nn[nH]n5)cc34)cc2)cc1 | % | 106 |
| O=C(Nc1cccnc1)c1cc(-c2ccnc(F)c2)ccc1OCc1ccccc1 | % | 123 |
| COc1ccc(-n2ncc3cnc(Nc4cc(OC)c(OC)c(OCCCN5CCN(C)CC5)c4)nc32)cc1 | % | 6 |
| C=C1C(=O)OC2C1CC/C(C)=C/CCC1(C)OC21 (stereo not given) | % | 72 |
| c1ccc2c(-c3cnn4cc(-c5ccc(N6CCNCC6)cc5)cnc34)ccnc2c1 | % | 80 |
| Cc1cccc(-c2nn(C(=S)Nc3ccccc3)cc2-c2ccnc3ccccc23)n1 | % | 95 |
| CNc1nc(-c2ccc3c(N)n[nH]c3c2)cc(N2C[C@@H](C(=O)NC3CCCCC3)CC[C@H]2C)n1 | % | 119 |
| C=CC(=O)N1CCC[C@@H](n2nc(-c3ccc(Oc4ccccc4)cc3)c3c(N)ncnc32)C1 | % | 65 |
| CC(C)(C#N)c1ccc(N2C(=O)OCc3cnc4ccc(-c5cnc6ccccc6c5)cc4c32)cc1 | % | 93 |
| Nc1cccc2c1CN(C1CCC(=O)NC1=O)C2=O (stereo not given) | % | 107 |
| CCNc1nc(Nc2cc(F)c(C(=O)N3CCOCC3)cc2OC)ncc1C(F)(F)F | % | 110 |
| CN(C)C/C=C/C(=O)Nc1cccc(C(=O)Nc2ccc(Nc3nccc(-c4cccnc4)n3)cc2)c1 | % | 103 |
| CCn1c(-c2nonc2N)nc2cncc(CNC3CCNCC3)c21 | % | 91 |
| NC(=O)c1cc2c(-c3cccc(-c4ccccc4)c3)cnc(N)c2s1 | % | 74 |
| O=C(Nc1ccccc1-c1cn2c(CN3CCNCC3)csc2n1)c1cnc2ccccc2n1 | % | 82 |
